# System: hypertrophic scars in rabbit ears
# assay-explanation: rabbit ear hypertrophic scar model
# Format: in vivo, New Zealand white rabbits
# measurement-context: 10% compound, 0.5 mL applied daily for 14 days, compared to control and solvent-treated group, FIG. 11
# Protocol: Eight female New Zealand white rabbits (2.6 to 3 kg) were anesthetized, and wounds were formed by removing the epidermis, dermis, and perichondrium of the ear skin of the rabbits using an 8 mm biopsy punch. […] A paraffin block of the fixed ear tissue of a rabbit was prepared, and sliced to a thickness of 3 μm, thereby preparing a tissue slide. […] The stained tissue slides were photographed using a 200× microscope, and epithelial thicknesses were measured using ZEISS ZEN Microscope Software. […]
readout-type: collagen density (ratio of blue-stained area to total area)

* NC(=O)C[S+]([O-])C(c1ccc(F)cc1)c1ccc(F)cc1 (stereo not shown) [CBM-N9] | lower collagen densities
* O=C(C[S+]([O-])C(c1ccccc1)c1ccccc1)NCC1CCCO1 (stereo not shown) [CBM-N5] | lower collagen densities
* O=C(CSC(c1ccccc1)c1ccccc1)Nc1ccccc1 [CBM-N3, 2-(benzhydrylthio)-N-phenylacetamide] | lower collagen densities
* NC(=O)C[S+]([O-])C(c1ccccc1)c1ccccc1 (stereo not shown) [CBM-N1, 2-(benzhydrylsulfinyl)acetamide, reference compound] | lower collagen densities
